Biological target: T1, cynomolgus monkey EL-C2 tag (cynomolgus monkey, UniProt Q9Y5X9 21-500 (human entry), limits assumed)
T1 construct: used as heparin extract of transfected HEK293F cells; also called cynomolgus EL
T1 chain: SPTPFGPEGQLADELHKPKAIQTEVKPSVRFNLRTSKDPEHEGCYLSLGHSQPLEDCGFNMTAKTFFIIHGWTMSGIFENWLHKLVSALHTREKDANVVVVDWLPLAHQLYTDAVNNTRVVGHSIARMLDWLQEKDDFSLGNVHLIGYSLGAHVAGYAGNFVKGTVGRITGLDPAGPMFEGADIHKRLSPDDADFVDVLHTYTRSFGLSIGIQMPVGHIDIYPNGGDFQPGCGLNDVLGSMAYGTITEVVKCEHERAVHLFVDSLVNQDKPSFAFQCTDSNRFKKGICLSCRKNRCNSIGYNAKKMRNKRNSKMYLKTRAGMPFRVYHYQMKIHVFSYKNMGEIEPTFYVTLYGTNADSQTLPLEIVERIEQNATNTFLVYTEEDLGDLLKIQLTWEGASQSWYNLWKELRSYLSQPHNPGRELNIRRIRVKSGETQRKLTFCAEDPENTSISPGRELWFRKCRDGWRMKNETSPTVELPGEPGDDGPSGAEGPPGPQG
Assay: Biacore SPR; EL heparin extract captured by anti-C2-tag antibody on CM5, antibody as analyte, bivalent fit
assayMetric: kon (M⁻¹ s⁻¹)
Dear colleague, please return just the value in M⁻¹ s⁻¹, with no unit written.

INPUT: Given the entry 25E4 antibody (antibody, IgG2b, V domains shown) VH: QVALKESGPGILQPSQTLSLTCSFSGFSLSTSGMGVGWIRQPSGKGLEWLAHIWWHGNKYYSTALKSRLTISKDTSNNQVFLKIASVDTADTATYYCARISDGYPLDYWGQGTSVTVSS VL: DIQMTQSPSSLSASLGGKVTITCKASQDINKYIVWYQQKPGKGPRLLIHYTSTLQPGFPSRFSGSGSGRDYSLSITNLEPEDIATYYCLQYDNLLWTFGGGTKLEIK , report its measured kon.
OUTPUT: 160000
